system: UACC-62; assay: NCI tumour cell line growth inhibition, 48 h
Calls of active or inactive are those of the source. Cut-off read from the data, not from the text of the source: active = GI50 up to about 1.1 µM and inactive = higher.
Parameter GI50: see the listing below.

Worked cases, answers included:
MOLECULE: COc1ccc(-c2c(/C=N/OCC(=O)O)c3sc4ccccc4n3c2/C=N/OCC(=O)O)cc1
MEASURED_TARGET: UACC-62
GI50: > 50 µM (inactive)
//
MOLECULE: CC12CCC(=O)N1[C@@H](c1ccccc1)[C@@H](c1ccccc1)O2 (stereo partly drawn)
MEASURED_TARGET: UACC-62
GI50: 42.5 µM (inactive)

With those in mind, consider the next molecule.
Problem: Consider the molecule Cc1ccc([N+](=O)[O-])cc1S(=O)(=O)Nc1ccc(C2=NN(S(=O)(=O)c3cc([N+](=O)[O-])ccc3C)C(c3cccs3)C2)cc1 (stereo not drawn) . State its measured GI50.
Solution: 15.8 µM (inactive)
